Source: patent US20050154537A1

- System: Platelets
- PROCEDURE_SUMMARY: Lookup table: marker validity (nadir) window, Platelets
- Type: in vivo
- ASSAY_SETUP: lower limit of nadir range, days elapsed between current dose and marker
I'd appreciate it if you marked entries Fulfilled when Platelets LL is lower than 8 days and Not fulfilled when it is not.

MOLECULE	CATEGORY
Nc1ccn([C@@H]2O[C@H](CO)[C@@H](O)C2(F)F)c(=O)n1 [Gemzar]	Fulfilled
N.N.[Cl][Pt][Cl] [Cisplatin]	Not fulfilled
CC(=O)O[C@@]12CO[C@@H]1C[C@H](O)[C@@]1(C)C(=O)[C@H](O)C3=C(C)[C@@H](OC(=O)[C@H](O)[C@@H](NC(=O)OC(C)(C)C)c4ccccc4)C[C@@](O)([C@@H](OC(=O)c4ccccc4)[C@H]21)C3(C)C [Taxotere]	Fulfilled

Then this molecule:
[ask] Record N.N.O=C([O-])C1(C(=O)[O-])CCC1.[Pt+2] [Carboplatin] : is its Platelets LL strictly below 8 days?
[reply] Not fulfilled

====

Documented Neutrophil Count (ANC) LL across a set of molecules
- System: Neutrophil Count (ANC)
- PROCEDURE_SUMMARY: Lookup table: marker validity (nadir) window, Neutrophil Count (ANC)
- Type: in vivo
- ASSAY_SETUP: lower limit of nadir range, days elapsed between current dose and marker
The reply should be a number in days, with the unit left off.

Completed entries (count: 4):
MOLECULE	MEASURED_PROPERTY	UNITS_LABEL	OBSERVED_MEASUREMENT
CC(=O)O[C@H]1C(=O)[C@@]2(C)[C@H]([C@H](OC(=O)c3ccccc3)[C@]3(O)C[C@H](OC(=O)[C@H](O)[C@@H](NC(=O)c4ccccc4)c4ccccc4)C(C)=C1C3(C)C)[C@]1(OC(C)=O)CO[C@@H]1C[C@@H]2O [Taxol]	Neutrophil Count (ANC) LL	days	8
Nc1ccn([C@@H]2O[C@H](CO)[C@@H](O)C2(F)F)c(=O)n1 [Gemzar]	Neutrophil Count (ANC) LL	days	7
N.N.[Cl][Pt][Cl] [Cisplatin]	Neutrophil Count (ANC) LL	days	18
N.N.O=C([O-])C1(C(=O)[O-])CCC1.[Pt+2] [Carboplatin]	Neutrophil Count (ANC) LL	days	17

Shifting focus to the molecule that follows.
[ask] Identify Neutrophil Count (ANC) LL associated with the molecule CC(=O)O[C@@]12CO[C@@H]1C[C@H](O)[C@@]1(C)C(=O)[C@H](O)C3=C(C)[C@@H](OC(=O)[C@H](O)[C@@H](NC(=O)OC(C)(C)C)c4ccccc4)C[C@@](O)([C@@H](OC(=O)c4ccccc4)[C@H]21)C3(C)C [Taxotere]
[reply] 6

====

- Tested on: Hemoglobin (Hgb)
- PROCEDURE_SUMMARY: Lookup table: marker validity (nadir) window, Hemoglobin (Hgb)
- Format: in vivo
- ASSAY_SETUP: lower limit of nadir range, days elapsed between current dose and marker
MEASURED_PROPERTY: Hemoglobin (Hgb) LL (days)
The reply should be a number in days, with the unit left off.

Completed entries (count: 4):
MOLECULE	MEASURED_PROPERTY	OBSERVED_MEASUREMENT
N.N.[Cl][Pt][Cl] [Cisplatin]	Hemoglobin (Hgb) LL	18
N.N.O=C([O-])C1(C(=O)[O-])CCC1.[Pt+2] [Carboplatin]	Hemoglobin (Hgb) LL	14
Nc1ccn([C@@H]2O[C@H](CO)[C@@H](O)C2(F)F)c(=O)n1 [Gemzar]	Hemoglobin (Hgb) LL	7
CC(=O)O[C@H]1C(=O)[C@@]2(C)[C@H]([C@H](OC(=O)c3ccccc3)[C@]3(O)C[C@H](OC(=O)[C@H](O)[C@@H](NC(=O)c4ccccc4)c4ccccc4)C(C)=C1C3(C)C)[C@]1(OC(C)=O)CO[C@@H]1C[C@@H]2O [Taxol]	Hemoglobin (Hgb) LL	8

Shifting focus to the molecule that follows.
[ask] Identify Hemoglobin (Hgb) LL associated with the molecule CC(=O)O[C@@]12CO[C@@H]1C[C@H](O)[C@@]1(C)C(=O)[C@H](O)C3=C(C)[C@@H](OC(=O)[C@H](O)[C@@H](NC(=O)OC(C)(C)C)c4ccccc4)C[C@@](O)([C@@H](OC(=O)c4ccccc4)[C@H]21)C3(C)C [Taxotere]
[reply] 8
